The origin of these recorded values is patent US20260028354A1.

study-system: ER in MCF-7 cells (Homo sapiens (Human), UniProt P03372)
Sequence (P03372 whole entry): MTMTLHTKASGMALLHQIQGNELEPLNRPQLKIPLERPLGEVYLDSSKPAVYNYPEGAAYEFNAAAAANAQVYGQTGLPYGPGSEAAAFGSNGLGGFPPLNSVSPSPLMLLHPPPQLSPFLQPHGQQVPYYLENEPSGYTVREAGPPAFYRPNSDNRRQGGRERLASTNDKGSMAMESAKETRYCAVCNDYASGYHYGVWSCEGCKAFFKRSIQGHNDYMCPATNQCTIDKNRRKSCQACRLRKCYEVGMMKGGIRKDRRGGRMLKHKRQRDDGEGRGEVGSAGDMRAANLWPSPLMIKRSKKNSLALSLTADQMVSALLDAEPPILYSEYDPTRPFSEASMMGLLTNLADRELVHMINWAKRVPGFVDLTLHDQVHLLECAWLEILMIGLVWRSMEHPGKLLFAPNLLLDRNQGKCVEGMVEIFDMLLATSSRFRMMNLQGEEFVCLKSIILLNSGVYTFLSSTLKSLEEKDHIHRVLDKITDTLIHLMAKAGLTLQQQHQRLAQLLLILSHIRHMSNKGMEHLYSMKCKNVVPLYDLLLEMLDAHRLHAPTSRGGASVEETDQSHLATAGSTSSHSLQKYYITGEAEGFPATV
test-details: In-cell Western (ICW) ER degradation assay in MCF-7 cells
Type: cell-based
assay-conditions: MCF7, read-out: MCF7 Dmax, MCF-7, maximal ER degradation, 16 hrs treatment
property-measured: Dmax

Inquiry: Which Dmax value is on record for COc1cc(N2CC3(CCC(CN4CCC5(CC4)COc4nc(C(=O)N[C@H]6CCC(=O)NC6=O)ccc45)CC3)C2)c(F)cc1[C@@H]1c2ccc(O)cc2CC[C@@H]1c1ccccc1 ?
Reply text: > 75%

Inquiry: Which Dmax value is on record for COc1cc(N2CCC(CN3CCN4c5cc6c(cc5OC[C@@H]4C3)C(=O)N([C@H]3CCC(=O)NC3=O)C6)CC2)ccc1[C@H]1c2ccc(O)cc2CC[C@H]1c1ccccc1 (single isomer, unassigned) ?
Reply text: 50 to 75%

Inquiry: Which Dmax value is on record for O=C1CC[C@H](N2Cc3c(ccc4c3OCC43CCN(CC4CCC5(CC4)CN(c4ccc([C@@H]6c7ccc(O)cc7CC[C@@H]6c6ccccc6)cn4)C5)CC3)C2=O)C(=O)N1 ?
Reply text: > 75%
